- Tested on: HL-1
- test description: relative cell viability (CellTiter-Glo) vs DMSO control (% of DMSO control); higher = more viable cells
- assay conditions: oxygen condition: normoxia 72 h; 5000 nM
Where a name gives a salt, the structure may show the parent alone.
measured endpoint: relative cell viability
Keep the answer to the number alone.

Please review the following examples before continuing.
Looking for the measured relative cell viability of CCN(CC)CC#CCOC(=O)C(O)(c1ccccc1)C1CCCCC1 (stereo unspecified) [Oxybutynin] , can you help?
101

Looking for the measured relative cell viability of CC[C@]1(O)C[C@H]2CN(CCc3c([nH]c4ccccc34)[C@@](C(=O)OC)(c3cc4c(cc3OC)N(C=O)[C@H]3[C@@](O)(C(=O)OC)[C@H](OC(C)=O)[C@]5(CC)C=CCN6CC[C@]43[C@@H]65)C2)C1 [Vincristine] , can you help?
41.1

Looking for the measured relative cell viability of CCc1ccc(CCOc2ccc(CC3SC(=O)NC3=O)cc2)nc1 (stereo unspecified) [Pioglitazone] , can you help?
120

Looking for the measured relative cell viability of CC(C)(C)c1ccc(C(O)CCCN2CCC(C(O)(c3ccccc3)c3ccccc3)CC2)cc1 (stereo unspecified) [Terfenadine] , can you help?
79.7

Looking for the measured relative cell viability of O=C(O)c1cccnc1 [Niacin] , can you help?
93.9

Looking for the measured relative cell viability of N[C@@H]1CN(c2c(F)cc3c(=O)c(C(=O)O)cn([C@@H]4C[C@@H]4F)c3c2Cl)CC12CC2 [Sitafloxacin hydrate] , can you help?
108

---
Looking for the measured relative cell viability of Cc1cc(C)nc(NS(=O)(=O)c2ccc(N)cc2)n1 [Sulfamethazine] , can you help?
119

Looking for the measured relative cell viability of N[C@@H](CSCCCO)C(=O)O [Fudosteine] , can you help?
115

Looking for the measured relative cell viability of COc1ccccc1N1CCN(CC(O)COc2cccc3ccccc23)CC1 (stereo unspecified) [Naftopidil] , can you help?
103

Looking for the measured relative cell viability of O=S(=O)(O)Oc1ccc(C(c2ccc(OS(=O)(=O)O)cc2)c2ccccn2)cc1 [Sodium Picosulfate] , can you help?
116

Looking for the measured relative cell viability of CCOC(=O)[C@H](CCc1ccccc1)N[C@@H](C)C(=O)N1Cc2cc(OC)c(OC)cc2C[C@H]1C(=O)O [Moexipril HCl] , can you help?
64.1

Looking for the measured relative cell viability of C[C@]12CC[C@@H]3c4ccc(O)cc4CC[C@H]3[C@@H]1C[C@@H](O)[C@@H]2O [Estriol] , can you help?
104

* * *

- Test system: HL-1
- test description: relative cell viability (CellTiter-Glo) vs DMSO control (% of DMSO control); higher = more viable cells
- assay conditions: oxygen condition: hypoxia 48 h (1% O2) + reoxygenation 24 h; 5000 nM
Counter-ions that a name gives are not always drawn.
Mark YES only for relative cell viability values smaller than 100; exact matches and larger values are NO.

Answered cases to consult:
Would you kindly verify if relative cell viability of O=C(O)Cc1ccccc1Nc1c(Cl)cccc1Cl [Diclofenac] is strictly less than 100?
NO

Would you kindly verify if relative cell viability of Nc1[nH]cnc2ncnc1-2 [Adenine hydrochloride] is strictly less than 100?
NO

Would you kindly verify if relative cell viability of CN(CCOc1ccc(NS(C)(=O)=O)cc1)CCc1ccc(NS(C)(=O)=O)cc1 [Dofetilide] is strictly less than 100?
NO

---
Would you kindly verify if relative cell viability of O=C(CCCCCCC(=O)Nc1ccccc1)NO is strictly less than 100?
YES

Would you kindly verify if relative cell viability of Nc1ccn([C@@H]2O[C@H](CO)[C@@H](O)C2(F)F)c(=O)n1 is strictly less than 100?
YES

Would you kindly verify if relative cell viability of COC(=O)[C@H](c1ccccc1Cl)N1CCc2sccc2C1 is strictly less than 100?
NO
